Numbers sourced from paper doi:10.1101/2023.06.02.543398.

# Subject of test: MAP7 MT-binding domain (MTBD), residues 59-170 (Homo sapiens, UniProt Q14244 59-170)
# Sequence (Q14244 59-170): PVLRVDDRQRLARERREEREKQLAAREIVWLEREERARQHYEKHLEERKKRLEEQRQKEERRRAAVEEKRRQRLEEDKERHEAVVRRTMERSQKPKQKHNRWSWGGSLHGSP
# Test details: fluorescence polarisation
Ends that are not written are not given here.

Binder: SVEGEGEEEGEEY (also: NHS-fluorescein label, position not given here) [NHS-fluorescein-labelled α-tubulin carboxy-terminal tail peptide]
Unit descriptor: µM
Kd: 91.3
